target: T1, human tissue factor (TF) on MDA-MB-231, NCI-H358 and HCT116 cells (human, UniProt P13726 33-295)
T1 construct: whole, on cells; also called TF antigen; CD142
experiment.notes: flow cytometry on MDA-MB-231 cells
metric.name: EC50 (nM)
Kindly provide the numeric value in nM only, without the unit symbol.

Record excerpt, results attached:
1. hu10H10-57 (antibody, V domains shown, H2+L5; Full-length IgG) VH: EVQLVQSGSELKKPGASVKVSCKASGYTFITYWIEWVRQRPGQGLEWMGDILPGSGSTNYNENFKGRAVFSADTSVSTAYLQISSLKAEDTAVYYCARSGYYGNSGFAYWGQGTLVTVSS VL: DIQMTQSPSSLSASVGDRVTITCKSSQSLLDSGNQKNYLTWYQQKPGKAPKLLIYWASTREEGVPSRFSGSGSGTDFTLTISSLQPEDFATYYCQNDYTYPLTFGQGTKLEIK ... 1.12
2. hu67Y118 (antibody, human IgG1, kappa, V domains shown) VH: EVQLQESGPGLVKPSQTLSLTCTVSGFSLTNYGVNWIRQSPGKGLEWIGVIWSRGNTDYNAAFKSRVTISKDTSKNQVSLKLSSVTAADTAVYYCARKDAIVATDALDYWGQGTTVTVSS VL: DIQMTQSPSSLSASVGDRVTITCKASQDVQTAVAWYQQKPGKAPKLLIYSTHYRYTGVPSRFSGSGSGTDFTFTISSLQPEDIATYYCLQLIGVPHTFGGGTKVEIKR ... 7.05

**Query** For the binder hu310-15 (antibody, human IgG1, kappa, V domains shown) VH: EVQLVQSGAEVKKPGASVKVSCKASGYSFTGYYMNWVRQAPGQGLEWMGEINPSTGGSTYNQKFKARVTLTVDQSTNTAYMELSSLRSEDTAVYYCARRELGGPFGYWGQGTTVTVSS VL: SIQMTQSPSSLSASVGDRVTITCKASQSVSSGIAWYQQKPGKSPKLLIYFASNRYTGVPSRFSGSGYGTDFTFTISSLQPEDIATYYCQQDYSSPWTFGGGTKVEIKR , what EC50 is on record?
**Result** 1.98
